Biological target: α1-adrenoceptors
Assay: inhibition of [7-methoxy-3H]prazosin binding to α1-adrenoceptors in rat whole cortical tissue
Conditions: rat whole cortex, [7-methoxy-3H]prazosin 0.1 nM, 30° C., 30 min
Binarize Ki at 20 nM; below is 1, at or above is -1.

>>> class_label("Cc1ccc2c(c1)O[C@@H](CN1CCC(CNC(=O)c3cccnc3N)CC1)CO2")
-1
>>> class_label("Nc1ncccc1C(=O)NCC1CCN(C[C@H]2COc3cccc(F)c3O2)CC1")
1
>>> class_label("O=C(NCC1CCN(CC2COc3ccccc3O2)CC1)c1cccc2cccnc12 (stereo not drawn)")
1
>>> class_label("Nc1ncccc1C(=O)NCC1CCN(CC2COc3ccc(F)cc3O2)CC1 (stereo not drawn)")
-1
>>> class_label("Nc1ncccc1C(=O)N1CCC(CNCC2COc3ccc(Cl)cc3O2)CC1 (racemic)")
-1
>>> class_label("Nc1ccsc1C(=O)NCC1CCN(CC2COc3ccccc3O2)CC1 (stereo not drawn)")
1
>>> class_label("COc1ccc2c(c1)O[C@@H](CN1CCC(CNC(=O)c3cccnc3N)CC1)CO2")
-1
>>> class_label("COc1cccc2c1OC(CN1CCC(CNC(=O)c3cccnc3N)CC1)CO2 (stereo not drawn)")
1
>>> class_label("O=C(NCC1CCN(C[C@H]2COc3ccc(Cl)cc3O2)CC1)c1ccccn1")
-1
>>> class_label("Cc1ccc(C(=O)NCC2CCN(C[C@H]3COc4ccc(Cl)cc4O3)CC2)c(N)n1")
-1
>>> class_label("O=C(NCC1CCN(CC2COc3ccccc3O2)CC1)c1ccccn1 (stereo not drawn)")
-1
>>> class_label("O=C(NCC1CCN(C[C@H]2COc3ccc(Cl)cc3O2)CC1)c1cccc2cccnc12")
-1
>>> class_label("O=C(NCC1CCN(C[C@H]2COc3cccc(Cl)c3O2)CC1)c1cccnc1")
1
>>> class_label("Nc1ncccc1C(=O)NCC1CCN(C[C@H]2COc3ccc(Br)cc3O2)CC1")
-1
>>> class_label("Cc1cccc2c1O[C@@H](CN1CCC(CNC(=O)c3cccnc3N)CC1)CO2")
1
>>> class_label("Nc1ncccc1C(=O)NCC1CCN(C[C@H]2COc3cccc(C(F)(F)F)c3O2)CC1")
1
>>> class_label("Cc1cccc(C(=O)NCC2CCN(C[C@H]3COc4ccc(Cl)cc4O3)CC2)n1")
-1
>>> class_label("Nc1ccsc1C(=O)NCC1CCN(C[C@H]2COc3ccc(Cl)cc3O2)CC1")
-1

---

Biological target: α1-adrenoceptors
Test: inhibition of [7-methoxy-3H]prazosin binding to α1-adrenoceptors in rat whole cortical tissue
Details: rat whole cortex, [7-methoxy-3H]prazosin 0.1 nM, 30° C., 30 min
Observation type: Ki

>>> result("Nc1ncccc1C(=O)NCC1CCN(C[C@H]2COc3ccccc3O2)CC1")
"0.017 µM"
>>> result("Cc1ncccc1C(=O)NCC1CCN(C[C@H]2COc3cccc(Cl)c3O2)CC1")
"0.02 µM"
>>> result("O=C(NCC1CCN(C[C@H]2COc3ccc(Cl)cc3O2)CC1)c1cccnc1")
"0.172 µM"
>>> result("COc1ncccc1C(=O)NCC1CCN(C[C@H]2COc3ccc(Cl)cc3O2)CC1")
"0.13 µM"
>>> result("Cc1ncccc1C(=O)NCC1CCN(C[C@H]2COc3ccc(Cl)cc3O2)CC1")
"0.298 µM"

---

Biological target: D2 dopamine receptors (Rattus norvegicus, UniProt P61169)
Construct: Striatal tissue from the brains of male Charles River CD rats
Sequence (P61169 whole entry): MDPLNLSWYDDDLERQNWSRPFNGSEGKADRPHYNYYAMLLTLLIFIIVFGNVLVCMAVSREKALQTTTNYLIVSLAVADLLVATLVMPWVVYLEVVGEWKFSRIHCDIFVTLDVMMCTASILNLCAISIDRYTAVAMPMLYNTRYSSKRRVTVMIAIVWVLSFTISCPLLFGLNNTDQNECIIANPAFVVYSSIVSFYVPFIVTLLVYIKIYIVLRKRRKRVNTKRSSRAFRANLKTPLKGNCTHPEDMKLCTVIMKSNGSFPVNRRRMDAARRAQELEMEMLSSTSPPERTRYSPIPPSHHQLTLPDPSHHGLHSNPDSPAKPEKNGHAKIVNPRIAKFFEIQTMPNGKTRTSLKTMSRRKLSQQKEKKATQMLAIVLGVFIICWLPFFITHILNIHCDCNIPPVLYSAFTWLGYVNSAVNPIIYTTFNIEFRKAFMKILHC
Experiment: inhibition of tritiated (S)-sulpiride binding to D2 dopamine receptors in rat striatal tissue
Settings: rat striatum, tritiated (S)-sulpiride 1 nM, 4° C., 40 min
Observation type: Ki (nM)

>>> number("COc1ncccc1C(=O)NCC1CCN(C[C@H]2COc3ccc(Cl)cc3O2)CC1")
43
>>> number("Cc1ncccc1C(=O)NCC1CCN(C[C@H]2COc3cccc(Cl)c3O2)CC1")
37
>>> number("Cc1ccc2c(c1)O[C@@H](CN1CCC(CNC(=O)c3cccnc3N)CC1)CO2")
55.6
>>> number("Nc1ncccc1C(=O)N1CCC(CNCC2COc3ccc(Cl)cc3O2)CC1 (racemic)")
11.4
>>> number("O=C(NCC1CCN(C[C@H]2COc3ccc(Cl)cc3O2)CC1)c1ccccn1")
21
>>> number("Cc1ncccc1C(=O)NCC1CCN(C[C@H]2COc3ccc(Cl)cc3O2)CC1")
110
>>> number("O=C(NCC1CCN(CC2COc3ccccc3O2)CC1)c1ccccn1 (stereo not drawn)")
67
>>> number("Nc1ncccc1C(=O)NCC1CCN(C[C@H]2COc3ccc(Br)cc3O2)CC1")
18
>>> number("O=C(NCC1CCN(C[C@H]2COc3ccc(Cl)cc3O2)CC1)c1cccnc1")
15

---

Target: UniProt P08913
pKi: −log10 of the molar value.
Observation type: pKi

>>> number("COc1ccc2c(c1)O[C@@H](CN1CCC(CNC(=O)c3cccnc3N)CC1)CO2 [Example 7]")
8.55

---

Target: α2A-adrenoceptors (Homo sapiens, UniProt P08913)
Construct: Human cerebral cortex obtained at post-mortem; from tissue; host or cells: human post-mortem cerebral cortex membranes
Sequence (P08913 1-465): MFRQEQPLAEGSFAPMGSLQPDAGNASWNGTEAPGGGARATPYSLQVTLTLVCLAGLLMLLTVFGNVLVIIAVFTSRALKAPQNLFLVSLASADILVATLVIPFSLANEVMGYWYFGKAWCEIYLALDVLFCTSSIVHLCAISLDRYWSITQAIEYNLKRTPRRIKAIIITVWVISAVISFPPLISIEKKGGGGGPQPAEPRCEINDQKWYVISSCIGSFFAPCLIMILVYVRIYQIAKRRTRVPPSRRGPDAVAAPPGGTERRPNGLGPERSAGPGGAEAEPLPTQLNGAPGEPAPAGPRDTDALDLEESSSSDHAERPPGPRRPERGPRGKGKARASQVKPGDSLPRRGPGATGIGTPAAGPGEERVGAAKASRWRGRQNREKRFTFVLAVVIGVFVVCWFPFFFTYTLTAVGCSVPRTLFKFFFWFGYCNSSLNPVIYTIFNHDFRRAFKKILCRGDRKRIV
Assay: inhibition of tritiated RX 821002 binding to α2A-adrenoceptors in human cerebral cortex
Conditions: at 10^-6 M, tritiated RX 821002, read-out: % displacement of radio ligand, α2A
Observation type: inhibition at 1 µM (%)

>>> number("Cc1ncccc1C(=O)NCC1CCN(C[C@H]2COc3cccc(Cl)c3O2)CC1 [Example 9]")
99
>>> number("Nc1ncccc1C(=O)NCC1CCN(C[C@H]2COc3ccccc3O2)CC1 [Example 15]")
100
>>> number("Nc1ccsc1C(=O)NCC1CCN(C[C@H]2COc3ccc(Cl)cc3O2)CC1 [Example 17]")
99
>>> number("COc1cccc2c1OC(CN1CCC(CNC(=O)c3cccnc3N)CC1)CO2 (centres unmarked) [Example 11]")
99
>>> number("O=C(NCC1CCN(CC2COc3ccccc3O2)CC1)c1ccccn1 (centres unmarked) [Example 6]")
100

---

Test system: α1-adrenoceptors
Assay: inhibition of [7-methoxy-3H]prazosin binding to α1-adrenoceptors in rat whole cortical tissue
Conditions: at 10^-6 M; rat whole cortex, [7-methoxy-3H]prazosin; 30 min, 1 µM
Observation type: % displacement of radio ligand, α1 (%)

>>> number("CSc1ncccc1C(=O)NCC1CCN(C[C@H]2COc3ccc(Cl)cc3O2)CC1")
29
>>> number("O=C(c1ccccn1)N1CCC(CNC[C@H]2COc3ccc(Cl)cc3O2)CC1")
85
>>> number("Nc1ncccc1C(=O)NCC1CCN(C[C@H]2COc3cccc(OS(=O)(=O)C(F)(F)F)c3O2)CC1")
98
>>> number("Nc1ncccc1C(=O)NCC1CCN(C[C@H]2COc3cccc(Cl)c3O2)CC1")
100

---

# maps each entry to its inhibition at 1 µM
Molecular target: 5-HT1A receptors (Rattus norvegicus, UniProt P19327)
Construct: Hippocampal tissue from the brains of male Sprague-Dawley rats; from tissue; host or cells: rat hippocampus membranes
Sequence (P19327 whole entry): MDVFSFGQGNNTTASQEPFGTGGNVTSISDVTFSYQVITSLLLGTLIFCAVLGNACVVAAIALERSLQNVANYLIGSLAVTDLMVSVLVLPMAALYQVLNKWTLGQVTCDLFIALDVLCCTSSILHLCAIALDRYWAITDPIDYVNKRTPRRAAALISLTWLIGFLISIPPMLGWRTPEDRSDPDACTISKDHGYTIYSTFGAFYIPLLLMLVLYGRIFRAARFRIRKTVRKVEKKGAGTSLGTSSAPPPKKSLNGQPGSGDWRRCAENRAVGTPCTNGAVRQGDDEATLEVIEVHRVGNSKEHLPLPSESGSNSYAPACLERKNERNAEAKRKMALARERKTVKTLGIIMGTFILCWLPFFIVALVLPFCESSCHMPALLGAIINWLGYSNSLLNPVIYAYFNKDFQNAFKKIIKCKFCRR
Assay: inhibition of [3H]8-OH-DPAT binding to 5-HT1A receptors in rat hippocampal tissue
Settings: at 10^-6 M; rat hippocampus, [3H]8-OH-DPAT; read-out: % displacement of radio ligand, 5-HT1A
Description: Hippocampal tissue from the brains of male Sprague-Dawley rats (Charles River; weight range 150-250 g) was homogenised in ice-cold 50 mM Tris-HCl buffer (pH 7.7 when measured at 25° C., 1:40 w/v) and centrifuged at 30,000 g at 4° C. for 10 minutes. […] The filters were washed with ice-cold Tris-HCl buffer and dried. The filters were punched out into vials, scintillation fluid added and radioactivity determined by liquid scintillation counting. […]
Observation type: inhibition at 1 µM (%)

>>> number("Nc1ncccc1C(=O)NCC1CCN(C[C@H]2COc3cccc(OS(=O)(=O)C(F)(F)F)c3O2)CC1 [Example 28]")
96
>>> number("CSc1ncccc1C(=O)NCC1CCN(C[C@H]2COc3cccc(C(F)(F)F)c3O2)CC1 [Example 48]")
80
>>> number("Cc1ccc2c(c1)O[C@@H](CN1CCC(CNC(=O)c3ccc(-n4cccc4)nc3)CC1)CO2 [Example 32]")
92
>>> number("O=C(NCC1CCN(C[C@H]2COc3cccc(C(F)(F)F)c3O2)CC1)c1cccnc1 [Example 45]")
80
>>> number("CSc1ncccc1C(=O)NCC1CCN(C[C@H]2COc3ccc(C)cc3O2)CC1 [Example 33]")
81
>>> number("O=C(NCC1CCN(C[C@H]2COc3ccc(Cl)cc3O2)CC1)c1ccc(-n2cccc2)nc1 [Example 40]")
87
>>> number("O=C(NCC1CCN(C[C@H]2COc3cccc(Cl)c3O2)CC1)c1cncc(Br)c1 [Example 52]")
95
>>> number("O=C(NCC1CCN(C[C@H]2COc3ccc(Br)cc3O2)CC1)c1ccc(-n2cccc2)nc1 [Example 37]")
85
